TEST_TARGET: T1, rat NMUR1-ATG (rat, UniProt Q9JJI5 1-425)
T1 sequence (looked up): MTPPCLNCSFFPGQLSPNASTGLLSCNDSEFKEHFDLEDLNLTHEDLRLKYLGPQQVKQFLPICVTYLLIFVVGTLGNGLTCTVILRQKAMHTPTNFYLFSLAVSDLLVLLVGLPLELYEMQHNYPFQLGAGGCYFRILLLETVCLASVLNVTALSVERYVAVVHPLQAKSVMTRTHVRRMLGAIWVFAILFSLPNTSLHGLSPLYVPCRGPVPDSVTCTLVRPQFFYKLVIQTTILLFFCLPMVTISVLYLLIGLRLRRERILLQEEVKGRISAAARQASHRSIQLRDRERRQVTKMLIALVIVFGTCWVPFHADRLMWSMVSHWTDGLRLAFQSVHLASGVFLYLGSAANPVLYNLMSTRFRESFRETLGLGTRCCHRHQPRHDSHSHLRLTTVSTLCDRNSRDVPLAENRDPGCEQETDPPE
ASSAY_EXPLANATION: cell-based or functional assay
*: point of attachment. (PEG)2 40 kDa = branched PEG of 40 kDa linked via the Cys side-chain thiol (code C2 = Cys(PEG)2 40 kDa); Succinimide(1-Et,3-yl) = CCN1C(=O)CC(*)C1=O; Palmitoyl = CCCCCCCCCCCCCCCC(=O)*
Each entry below lists one item and its recorded % Activity (FLIPR) value.
State the answer as a number, implicitly in %.

[
  {
    "BINDER": "Ac-C(PEG 20 kDa)FRVDEEFQSPFASQSRGYFLFRPRN-NH2 [NMU21]",
    "VALUE_UNITS": "%",
    "% Activity (FLIPR)": 99.9
  }
]

Supply measured % Activity (FLIPR) of Ac-FRVDEEFQSPFASQSRPYFLFRPRN-NH2 [NMU5] in your reply. 100

Supply measured % Activity (FLIPR) of Palmitoyl-C((PEG)2 40 kDa)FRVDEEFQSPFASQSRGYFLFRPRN-NH2 [NMU25] in your reply. 99.6

Supply measured % Activity (FLIPR) of Ac-C(Succinimide(1-Et,3-yl))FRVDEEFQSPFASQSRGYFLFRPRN-NH2 [NMU8] in your reply. 97.2

Supply measured % Activity (FLIPR) of Ac-C((PEG)2 40 kDa)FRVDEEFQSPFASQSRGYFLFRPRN-NH2 [NMU12] in your reply. 52.7

Supply measured % Activity (FLIPR) of Ac-C(Succinimide(1-Et,3-yl))C(Succinimide(1-Et,3-yl))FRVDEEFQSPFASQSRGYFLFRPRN-NH2 [NMU22] in your reply. 100
